Each recorded value in this set is attributed to ChEMBL document CHEMBL4346684.

MIC reference
- Test system: Streptococcus pyogenes
- METHOD_SUMMARY: Antimicrobial activity against inducibly erythromycin resistant Streptococcus pyogenes 01-968 expressing i-ermA incubated in CAMHB medium for 20 to 24 hrs by two-fold microbroth dilution method
- Assay type: functional
RESULT_TYPE: MIC (µg/mL)

CC[C@H]1OC(=O)[C@H](C)[C@@H](OC(=O)NCCCCc2cccnc2)[C@H](C)[C@@H](O[C@@H]2O[C@H](C)C[C@H](N(C)C)[C@H]2O)[C@](C)(OC)C[C@@H](C)/C(=N\OC)[C@H](C)[C@H]2OC(=O)O[C@@]21C
128
CC[C@H]1OC(=O)[C@H](C)[C@@H](OC(=O)NCCCc2ccc3c(c2)c(=O)c(C(=O)O)cn3C2CC2)[C@H](C)[C@@H](O[C@@H]2O[C@H](C)C[C@H](N(C)C)[C@H]2O)[C@](C)(OC)C[C@@H](C)/C(=N\OC)[C@H](C)[C@H]2OC(=O)O[C@@]21C
4
CC[C@H]1OC(=O)[C@H](C)[C@@H](OCC#Cc2ccc(NC(=O)c3ccccn3)nc2)[C@H](C)[C@@H](O[C@@H]2O[C@H](C)C[C@H](N(C)C)[C@H]2O)[C@](C)(OC)C[C@@H](C)/C(=N\OC)[C@H](C)[C@H]2OC(=O)O[C@@]21C
16
CC[C@H]1OC(=O)[C@H](C)[C@@H](OCC#Cc2cncc(NC(=O)c3ccccn3)c2)[C@H](C)[C@@H](O[C@@H]2O[C@H](C)C[C@H](N(C)C)[C@H]2O)[C@](C)(OC)C[C@@H](C)/C(=N\OC)[C@H](C)[C@H]2OC(=O)O[C@@]21C
16
